The reported measurements were obtained from the RNAGym collection of RNA variant scans (doi:10.7554/elife.90254).

Measured self-cleavage, listed per entry.
B1: LINE1-full (parent)
chain: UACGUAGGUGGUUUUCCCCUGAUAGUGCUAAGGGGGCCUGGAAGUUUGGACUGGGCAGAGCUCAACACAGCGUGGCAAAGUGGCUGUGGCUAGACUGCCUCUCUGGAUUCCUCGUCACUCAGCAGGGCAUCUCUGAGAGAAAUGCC

- Variants of: B1
- experiment_description: self-cleavage, relative activity (ratio to wild type); higher = more cleavage; in vitro, sequencing; the parent is a self-cleaving ribozyme
Reply with the value as a number alone.

GET /values?readout=self-cleavage&item= G35U G74A
1.22

GET /values?readout=self-cleavage&item= A67U A79G
0.18

---
GET /values?readout=self-cleavage&item= C110U U112A
1.4

GET /values?readout=self-cleavage&item= U45G A141G
1.32

GET /values?readout=self-cleavage&item= A121U U132A
1.36

GET /values?readout=self-cleavage&item= G58A C71U
0.03

GET /values?readout=self-cleavage&item= A94U U112A
0.31

GET /values?readout=self-cleavage&item= U14C U87G
0.31

GET /values?readout=self-cleavage&item= U96C A117G
0.2

GET /values?readout=self-cleavage&item= `A59G`
0.09

GET /values?readout=self-cleavage&item= A43G A59U
0.82

GET /values?readout=self-cleavage&item= U119A U130C
1.85

GET /values?readout=self-cleavage&item= U26C A124G
0.64

GET /values?readout=self-cleavage&item= A79G U87C
0.17

GET /values?readout=self-cleavage&item= U20A U29C
1.09

GET /values?readout=self-cleavage&item= U52G U87G
0.59

GET /values?readout=self-cleavage&item= U13G U45C
0.78

GET /values?readout=self-cleavage&item= `G27C`
1.11

GET /values?readout=self-cleavage&item= U85C U134C
0.26

GET /values?readout=self-cleavage&item= U5C A117U
1.03
